So I've got pIC50 readings for Aldo-keto reductase family 1 member B1 (Rattus norvegicus, UniProt P07943), take a look.
To interpret pIC50, take it as minus log10 of a concentration measured in moles per litre.

| compound | tgt | val |
| --- | --- | --- |
| CC(C(=O)O)N(OCc1ccc(Cl)cc1)C(=O)c1ccccc1 (centres undefined) | Aldo-keto reductase family 1 member B1 (Rattus norvegicus, UniProt P07943) | 5.57 |
| CC(C(=O)O)N(OCc1ccccc1Cl)C(=O)c1ccccc1 (centres undefined) | Aldo-keto reductase family 1 member B1 (Rattus norvegicus, UniProt P07943) | 5.31 |

Now, please, on to the next compound.
Entry CC(C(=O)O)N(OCc1cccc(Cl)c1)C(=O)c1ccccc1 (centres undefined) : reported pIC50 = ?
4.90
